Details: in acetone, 292.85 K
reported_endpoint: solubility (mole fraction)
Just the number, please, no unit after it.

Reported solubility (mole fraction) ( O=S(=O)(c1ccccc1)N(F)S(=O)(=O)c1ccccc1 ) = 0.0639

----------
Settings: in acetone, 288.35 K
reported_endpoint: solubility (mole fraction)
Write the value as a bare number.

O=S(=O)(c1ccccc1)N(F)S(=O)(=O)c1ccccc1 yielded solubility (mole fraction) of 0.0539

----------
Settings: in acetonitrile, 283.35 K
reported_endpoint: solubility (mole fraction)
Give a plain numeric answer without units written out.

Short answer for O=S(=O)(c1ccccc1)N(F)S(=O)(=O)c1ccccc1 : solubility (mole fraction) was 0.0165

----------
Settings: in n-propanol, 283.35 K
reported_endpoint: solubility (mole fraction)
Answer with a number only.

What the record says about O=S(=O)(c1ccccc1)N(F)S(=O)(=O)c1ccccc1 : solubility (mole fraction) is 0.000832
